- measuredOn: Left-right determination factor 2 (Homo sapiens)
- runDescription: LEFTY2 binders on small-molecule microarrays, primary screen, biochemical, small-molecule microarray, 635 nm fluorescence scan (AID 1110)
- conditionSet: LEFTY2 binding, higher = more signal
Note to self: values exactly at 0.4 are Condition met. So composite z-score at or above 0.4 is Condition met, below is Condition not met.

CCOC(=O)C1=CC[C@@H](c2ccccc2)N(S(=O)(=O)c2ccc(C)cc2)[C@H]1C    Condition met
CO[C@H]1COC(=O)[C@@H](Cc2ccccc2)NC(=O)[C@@H](C)COC(=O)CC=C[C@@H]1C    Condition met
O=C1OCCC=C[C@H]2OC34C=CCN(Cc5ccccc5)C(=O)[C@H]3N(CCO)C(=O)[C@@H]4C12 (stereo not given in full)    Condition not met
CCCC=C(CCC)[C@@H](NC(=O)c1ccc(C(F)(F)F)cc1)c1ccccc1    Condition not met

---

Documented z-score across a set of molecules
- runDescription: inhibitors of hydroxyurea-induced Chk1 phosphorylation, primary screen, imaging, HeLa, phospho-Chk1 nuclear intensity (AID 1187); also: test concentration not given here
- conditionSet: hydroxyurea-induced phospho-Chk1 immunofluorescence imaging, higher = more signal
assayEndpoint: z-score

COc1ccc([Si](C)(C)[C@@H]2[C@@H](CCO)O[C@]3(C(=O)N(Cc4ccc(NC(=O)[C@H](C)O)cc4)c4ccccc43)[C@H]2C)cc1    -1.27
O=C1C[C@@](C(=O)NCCN2CCOCC2)(c2ccc([N+](=O)[O-])cc2)[C@@H](c2ccc(CO)cc2)N1C1CCCCC1    0.434
CCCCCCc1nc(-c2cc(C)c(OC)c(C)c2)cc2c1[Si](C(C)C)(C(C)C)O[C@H]2c1ccccc1    -0.242
COc1ccc([Si](C)(C)[C@H]2[C@H](CC(=O)N(CCO)Cc3ccccc3)O[C@@]3(C(=O)N(C)c4ccccc43)[C@@H]2C)cc1    -0.251
C=CCC(OC(C)=O)[C@@H]1[C@@H](N(Cc2cc3ccccc3o2)C(=O)c2ccc(C)cc2)c2cc(OCCCO)ccc2N1C(=O)c1ccc2ccccc2n1 (stereo partly specified)    0.295
COc1cc(CO)cc(I)c1O[C@H]1C=C(C(=O)NCCO)C[C@@H](N(CC2CCCCC2)C(=O)c2cc3ccccc3oc2=O)[C@@H]1O    0.194
CO[C@H]1O[C@H](CO)[C@@H](OC(=O)Nc2ccccc2)[C@H](OC(=O)Nc2ccc3c(c2)OCO3)[C@@H]1OC(=O)Nc1ccc2c(c1)OCO2    0.121
CC(C)[Si](OCC[C@H]1O[C@]2(C(=O)N(Cc3ccccc3)c3ccccc32)[C@@H](C)[C@@H]1[Si](C)(C)O)(C(C)C)C(C)C    -0.322
COC(=O)c1ccc(C#CC(NP(=O)(c2ccccc2)c2ccccc2)c2ccccc2)cc1 (stereo unspecified)    -1.03
COC(=O)C[C@H]1O[C@]2(C(=O)N(C)c3ccccc32)[C@@H](C)[C@@H]1[Si](C)(C)c1ccc(OC)cc1    0.688
Cc1ccc(N2C(=O)c3ccccc3[C@](C)(C(=O)O)[C@@H]2c2ccc(CO)cc2)nc1    0.522
Cc1ccc(S[C@]2(C(=O)NC3CC3)CC(=O)N(Cc3cc(C(F)(F)F)cc(C(F)(F)F)c3)[C@@H]2c2ccc(CO)cc2)cc1    -0.0725
C=C(/C(=C/C[C@@H](OC(=O)c1ccncc1)c1ccc(CO)o1)c1cnc2ccccc2c1)C(C)C    -0.232
NC(=O)NCC#Cc1ccc2c(c1)[C@]1(C(=O)N2)[C@H](C(N)=O)[C@H]2C(=O)O[C@H](c3ccccc3)[C@H](c3ccccc3)N2[C@@H]1c1ccccc1OCCO    0.158
COC(=O)[C@@]1(Cc2ccccc2N=[N+]=[N-])N=C(c2ccc(OCCCO)cc2)O[C@H]1c1ccccc1CN=[N+]=[N-]    -0.735
C[C@]1(C(=O)NCCN2CCOCC2)c2ccccc2C(=O)N(Cc2ccccc2)[C@H]1c1ccc(CO)cc1    0.0648

---

- runDescription: PSAC antagonists in infected red cells, primary screen, cell-based, P. falciparum Indochina, OD700, 18 h (AID 1157)
- conditionSet: P. falciparum Indochina infected erythrocytes, osmotic lysis OD700, 18 h; higher = more signal, called active from +8 up or from −8 down
assayEndpoint: z-score

CC[C@@H]1C=C(C(=O)O)[C@H](c2ccccc2)N1S(=O)(=O)c1ccc([N+](=O)[O-])cc1    1.15
O=C(NCC(O)CO)[C@]1(Cc2ccccc2)N=C(c2ccc(OCCCO)cc2)O[C@@H]1c1ccccc1 (stereo not given in full)    0.35
Cc1ccc([C@@H]2CC=C(C(=O)O)[C@H](c3ccccc3)N2S(=O)(=O)c2ccc(C)cc2)cc1    0.708
COC(=O)C(CC#Cc1ccc2c(c1)[C@]1(C(=O)N2)[C@H](C(=O)N2CCCCCCC2)[C@H]2C(=O)O[C@H](c3ccccc3)[C@H](c3ccccc3)N2[C@@H]1c1ccc(O)cc1)C(=O)OC    -1.18
COc1ccc(-c2cc3c(c(-c4ccccc4)n2)[Si](C(C)C)(C(C)C)O[C@H]3c2ccccc2)cn1    -0.183

---

- measuredOn: Torsin-1A (Homo sapiens)
- runDescription: small-molecule binders of mutant TOR1A in lysate, primary screen, cell lysate, small-molecule microarray, COS7 lysate, 635/667 nm fluorescence (AID 1150);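 also: score pools 667 nm emission and signal to noise measuring lysate protein binding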
- conditionSet: COS7 hTOR1A mutant lysate, 635 nm fluorescence, higher = more signal
Documented composite z-score across a set of molecules
assayEndpoint: composite z-score

COCCOC(=O)N1C(=O)[C@@]2(c3cc(C#CCCO)ccc31)[C@H](C(=O)N1CCCCCCC1)[C@H]1C(=O)O[C@H](c3ccccc3)[C@H](c3ccccc3)N1[C@@H]2c1ccc(O)cc1    0.922
C=CC[C@]1(C(=O)O)N=C(c2ccc(OCCCO)cc2)O[C@H]1c1ccccc1N=[N+]=[N-]    0.125
COC(=O)C(CC#Cc1ccc2c(c1)[C@]1(C(=O)N2)[C@H](C(=O)N2CCCCCCC2)[C@H]2C(=O)O[C@H](c3ccccc3)[C@H](c3ccccc3)N2[C@@H]1c1ccc(O)cc1)C(=O)OC    -0.529
CC(C)NC(=O)[C@@]1(Cc2ccccc2I)c2ccccc2C(=O)N(C2CCCCC2)[C@H]1c1ccc(CO)cc1    0.559
CO[C@@H]1COC(=O)[C@H](COCc2ccccc2)NC(=O)CC=C[C@@H](C)[C@H](OC)COC(=O)[C@H](COCc2ccccc2)NC(=O)CC=C[C@H]1C    0.209
O=C1O[C@H](c2ccccc2)[C@H](c2ccccc2)N2[C@H]1[C@@H](C(=O)NC[C@H](O)c1ccccc1)[C@]1(C(=O)Nc3ccc(C#CC4(O)CCCCCC4)cc31)[C@H]2c1ccc(OCCO)cc1    0.644

---

- measuredOn: Streptavidin (Streptomyces avidinii) (UniProt P22629)
- Sequence (P22629 whole entry, looked up): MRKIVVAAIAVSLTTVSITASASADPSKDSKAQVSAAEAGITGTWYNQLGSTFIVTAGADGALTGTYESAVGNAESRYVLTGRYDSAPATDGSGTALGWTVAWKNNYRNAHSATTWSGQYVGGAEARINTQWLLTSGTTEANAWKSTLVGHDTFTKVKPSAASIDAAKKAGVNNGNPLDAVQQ
- runDescription: streptavidin binders on small-molecule microarray, primary screen, artefact control for SMM compound annotation, biophysical, 635/667 nm fluorescence (AID 1147);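 also: signal reflects streptavidin binding to arrayed compounds as a control protein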
- conditionSet: streptavidin binding, higher = more signal
assayEndpoint: composite z-score

C[C@H]1C2[C@H](Cc3ccccc3)NC(=O)[C@]23C(=O)N[C@H](Cc2ccccc2)C(=O)N[C@@H](Cc2ccccc2)C(=O)NC/C=C\C/C=C/C3[C@@H]2O[C@]12C (stereo not given in full)    -0.214
CCCCCCc1nc(C2CC2)c(C)c2c1[Si](C(C)C)(C(C)C)OC2    -0.0332
[N-]=[N+]=NCc1ccccc1C[C@@]1(C(=O)N2CCOCC2)N=C(c2ccc(OCCCO)cc2)O[C@@H]1c1ccccc1N=[N+]=[N-]    1.43
CC(C)CNC(=O)[C@@]1(C)c2ccccc2C(=O)N(Cc2ccc(OC(F)(F)F)cc2)[C@H]1c1ccc(CO)cc1    -1.12
Cc1ccc(N2C(=O)c3ccccc3[C@@H](C(=O)NCC(F)(F)F)[C@@H]2c2ccc(CO)cc2)nc1    -1.62
CC(C)(C)OC(=O)CC[C@@]1(C(=O)NCc2ccccc2)N=C(c2ccc(OCCCO)cc2)O[C@@H]1c1ccccc1    1.41
COC(=O)C[C@H]1O[C@]2(C(=O)N(Cc3ccccc3)c3ccc(I)cc32)[C@@H](C)[C@@H]1[Si](C)(C)c1ccc(OC)cc1    0.0595
CC(C)CN1C(=O)[C@@]2(Cc3ccccc31)c1ccccc1C(=O)N(C1CCCCC1)[C@H]2c1ccc(CO)cc1    -1.12
CC[C@H]1C2=C3C(CC[C@H]4C(OC)OC[C@](C)([C@@H]34)N(C(=O)OC(C)(C)C)C2)C(CO)C1CO (stereo not given in full)    3.17
CCOC(=O)C1=CC[C@@H](c2ccc(-c3ccc(OCc4ccccc4)cc3)c(OC)c2)N(S(=O)(=O)c2ccc(C)cc2)[C@H]1c1ccccc1    1.67
[N-]=[N+]=NCc1ccccc1[C@H]1OC(c2ccc(OCCCO)cc2)=N[C@@]1(Cc1ccccc1N=[N+]=[N-])C(=O)NCc1ccccc1    0.303
CO[C@H]1COC(=O)[C@@H](C)COC(=O)[C@H](Cc2ccccc2)NC(=O)CC=C[C@H]1C    -0.666
C[N+](C)(C)CCCC[C@@H]1NC(=O)[C@H]2C[C@@H](C(=O)NCc3ccc(F)cc3)[C@@H](c3cccc(OCCO)c3)N2C1=O    -0.326
C=CCNC(=O)[C@H]1[C@@H]2C(=O)O[C@@H](c3ccccc3)[C@@H](c3ccccc3)N2[C@@H](c2ccc(O)cc2)[C@]12C(=O)Nc1ccc(C#CCNC(N)=O)cc12    -0.96
C=CCN(C(=O)C1N(c2ccc(CCO)cc2)C(=O)C2C(C(=O)O)C3C=CC21O3)C(C)(C)C (stereo not given)    -2.01
COc1cccc([C@@H]2[C@@H](C)CC[C@H]3C(=O)N4[C@H](c5cccc(OC)c5)[C@@H](C)CC[C@H]4C(=O)N23)c1    0.258
C=CCN1C(=O)[C@]2(O[C@H](CCn3cc(CCO)nn3)[C@@H]([Si](C)(C)c3ccc(OC)cc3)[C@@H]2C)c2cc(NC(=O)c3ccc(OC)cc3)ccc21    0.132
CO[C@H]1COC(=O)CC=C[C@H](C)COC(=O)[C@@H](OCc2ccccc2)C=C[C@@H]1C    0.846
CC(C)C[C@@H]1NC(=O)[C@H]2C[C@@H](C(=O)NCCCCCC[N+](C)(C)C)[C@@H](c3ccc(O)cc3)N2C1=O    -0.308
CCCNC(=O)[C@@]1(Sc2ccc(C)cc2)CC(=O)N(Cc2ccccc2Cl)[C@@H]1c1ccc(CO)cc1    0.124
